- TESTED_TARGET: Cbl (aa49-434) (Homo sapiens, UniProt P22681)
- Construct: Cbl (aa49-434, in-house); made in house
- Sequence (P22681 49-434): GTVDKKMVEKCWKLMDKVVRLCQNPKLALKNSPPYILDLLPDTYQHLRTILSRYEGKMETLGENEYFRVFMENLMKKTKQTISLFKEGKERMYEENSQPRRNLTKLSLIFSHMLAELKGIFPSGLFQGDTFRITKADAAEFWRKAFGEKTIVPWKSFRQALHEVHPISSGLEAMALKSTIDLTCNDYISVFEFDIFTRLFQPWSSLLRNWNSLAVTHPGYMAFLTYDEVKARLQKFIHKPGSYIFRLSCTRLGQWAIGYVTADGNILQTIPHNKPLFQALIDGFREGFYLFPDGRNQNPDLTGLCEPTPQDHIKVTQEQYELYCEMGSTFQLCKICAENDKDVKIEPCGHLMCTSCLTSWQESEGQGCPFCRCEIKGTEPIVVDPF
- PROTOCOL_DETAILS: Co-expressed Cbl with BirA biochemical assay (CBL/E2-Ub binding, HTRF)
- ASSAY_CONTEXT: 0.6 nM Cbl co-expressed with BirA, read-out: co-express CBL/E2-Ub-binding assay IC50
Mark each entry satisfied if its IC50 sits below 10 nM, and not satisfied for all others.

COMPOUND	ASSIGNED_LABEL
C[C@@H]1CN(Cc2cc(C(=O)Nc3cccc([C@]4(Cc5nncn5C)C[C@@H](C#N)C4)c3)c3nccn3c2)CC[C@@H]1F	satisfied

Task item: A record lists CC(C)CNCc1cc(C(=O)Nc2cccc([C@]3(c4nncn4C)C[C@@H](CC#N)C3)c2)nc2cc[nH]c12 . Is its IC50 below 10 nM?
Reply: satisfied

Task item: How about this compound: C[C@H]1CCCN(Cc2cc(C(=O)Nc3cccc([C@]4(c5nncn5C)C[C@@H](CC#N)C4)c3)c3ncc(F)n3c2)C1
Reply: not satisfied

Task item: Could you do the same for Cn1cnnc1[C@]1(c2cccc(NC(=O)c3cc(CNC4(C)CC4)cn4c(F)cnc34)c2)C[C@H](CC#N)C1 , please?
Reply: not satisfied

Task item: Consider next the compound Cn1cnnc1CC1(c2cccc(NC(=O)c3cc(CN4CCCC(C(F)(F)F)C4)c4[nH]ccc4n3)c2)COC1 (stereo not shown) in the same way.
Reply: not satisfied

Task item: Cool, now C[C@H](NCc1cc(C(=O)Nc2cccc([C@]3(c4nncn4C)C[C@@H](C)C3)c2)nc2cc[nH]c12)C1CC1
Reply: satisfied

Task item: Subsequent entry: Cn1cnnc1[C@]1(c2cccc(NC(=O)c3cc(CNC4(C)CC4)cn4ncnc34)c2)C[C@H](C)C1
Reply: not satisfied
